B1: C1orf137 (parent)
chain: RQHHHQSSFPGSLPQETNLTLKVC

variants of: B1; assay: protein stability index of a GFP-peptide fusion (GPS, HEK-293T) (PSI 1-6); higher = more stable; conditions: c terminus: a fixed tail appended;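 further: lentivirally expressed fusions sorted by FACS into six bins by GFP to DsRed ratio, PSI derived from sequencing read proportions per bin multiplied by bin number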
Measurement Kind: protein stability index
I only need the number, thanks.

Some solved cases for reference:
Query: Quick one: protein stability index of H5N ?
Reply: 2.91

Query: Requested read-out: protein stability index. Entry: G11Q
Reply: 3.07

Query: Which protein stability index reading was recorded for the variant H3I ?
Reply: 3.06

Query: Item under review: S8N . Reported protein stability index?
Reply: 3.08

Query: Endpoint output: protein stability index of G11H . Value?
Reply: 2.98

Query: protein stability index lookup needed for R1V , thanks.
Reply: 3.05

---
Query: Request the reported protein stability index associated with E16P
Reply: 2.99

Query: Entry under review: H4S . Reported protein stability index?
Reply: 2.96

Query: Looking for the measured protein stability index of K22Q , can you help?
Reply: 2.92
